tested_system: KRAS WT (Homo sapiens, UniProt P01116+P62937)
Sequence (P01116 1-169 isoform P01116-2 limits assumed): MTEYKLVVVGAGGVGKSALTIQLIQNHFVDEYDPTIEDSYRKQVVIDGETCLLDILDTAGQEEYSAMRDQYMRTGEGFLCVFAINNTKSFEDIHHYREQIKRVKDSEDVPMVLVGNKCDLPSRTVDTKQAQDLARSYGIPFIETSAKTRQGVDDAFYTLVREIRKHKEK
Sequence (P62937 whole entry): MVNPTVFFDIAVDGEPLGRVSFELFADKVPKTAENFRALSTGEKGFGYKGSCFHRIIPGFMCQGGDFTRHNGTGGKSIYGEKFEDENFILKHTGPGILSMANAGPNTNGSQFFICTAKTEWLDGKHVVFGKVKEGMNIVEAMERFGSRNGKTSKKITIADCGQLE
assay_procedure: Disruption of BRAF RBD interaction with Ras (FRET / MOA assay, with Cyclophilin A)
Format: biochemical
test_parameters: KRAS WT; read-out: KRAS WT FRET data IC50
pIC50: −log10 of the molar value.
outcome_measure: pIC50

- mol: "CCn1c(-c2cccnc2[C@H](C)OC)c2c3cc(ccc31)-c1cc(O)cc(c1)C[C@H](NC(=O)[C@H](C(C)C)N(C)C(=O)[C@H]1CC[C@@H](CN(C)C)O1)C(=O)N1CCC[C@H](N1)C(=O)OCC(C)(C)C2"
  measured_value: "7.00 to 8.00"
- mol: "CCn1c(-c2cccnc2[C@H](C)OC)c2c3cc(ccc31)-c1cc(O)cc(c1)C[C@H](NC(=O)C(C1CC1)C1CC1)C(=O)N1CCC[C@H](N1)C(=O)OCC(C)(C)C2"
  measured_value: "6.00 to 7.00"
- mol: "CCn1c(-c2cnccc2COC)c2c3cc(ccc31)-c1cc(O)cc(c1)C[C@H](NC(=O)[C@H](C(C)C)N(C)C(=O)[C@@H]1CCOC1)C(=O)N1CCC[C@H](N1)C(=O)OCC(C)(C)C2"
  measured_value: "6.00 to 7.00"
- mol: "CCn1c(-c2cccnc2[C@H](C)OC)c2c3cc(ccc31)-c1nc(cs1)C[C@H](NC(=O)[C@H](C(C)C)N(C)C(C)=O)C(=O)N1CCC[C@H](N1)C(=O)OCC(C)(C)C2"
  measured_value: "5.00 to 6.00"

(Q) Consider the compound CO[C@@H](COC1CN(C(=O)C#CC(C)(C)N(C)C)C1)C(=O)N[C@H]1Cc2cccc(c2)-c2ccc3c(c2)c(c(-c2cccnc2[C@H](C)OC)n3CC(F)(F)F)CC(C)(C)COC(=O)[C@@H]2CCCN(N2)C1=O . State its measured pIC50.
(A) 5.00 to 6.00

Values compiled from patent US20230233569A1.
